Test: Liver microsomes study, Phase I stability (HLM)
Format: in vitro ADME, human
Settings: pH 7.4; human liver microsomes 0.5 mg/mL, 1 μM test article; read-out: HLM Clint
For each entry below, report its microsomal CLint at 1 μM value.
Numbers only, in µL/min/mg.

Take a look at these entries with their results.
Cc1cnc(Nc2cnn(C3CCOCC3)c2)nc1-c1ccc(C(=O)NCC2(C#N)CC2)cc1 [Example 37]    20.7
Cc1cnc(Nc2cnn(C3CCOCC3)c2)nc1-c1ccc(C(=O)N[C@@H](C)C(F)(F)F)cc1 [Example 75]    22.6
Cc1cnc(Nc2cnn(C3CCN(C(=O)C(C)(C)O)CC3)c2)nc1-c1ccc(C(=O)NCC#N)cc1 [Example 51]    33.9

Your task in this section: give microsomal CLint at 1 μM for each listed record.
1. Cc1cnc(Nc2cnn(C3C[C@H]4CC[C@@H](C3)O4)c2)nc1-c1ccc(C(=O)N[C@@H](C)C#N)cc1 (stereo partly shown) [Example 70]
2. Cc1cnc(Nc2cnn(C3CCN(C)CC3)c2)nc1-c1ccc(C(=O)N[C@@H](C)C#N)cc1 [Example 48]
3. C[C@@H](C#N)NC(=O)c1ccc(-c2nc(Nc3cnn(C)c3)ncc2Cl)cc1 [Example 125]
4. Cc1cnc(Nc2cnn(C3CCN(C(=O)[C@H]4CC4(C)C)CC3)c2)nc1-c1ccc(C(=O)NCC#N)cc1 [Example 143]

-- reply
1: 42.9; 2: 4.64; 3: 21.9; 4: 1430

----------
Answer each item with its documented IC50.
Target: TYK2 (Homo sapiens, UniProt P29597)
Construct: purchased Carna Biosciences
Sequence (P29597 whole entry): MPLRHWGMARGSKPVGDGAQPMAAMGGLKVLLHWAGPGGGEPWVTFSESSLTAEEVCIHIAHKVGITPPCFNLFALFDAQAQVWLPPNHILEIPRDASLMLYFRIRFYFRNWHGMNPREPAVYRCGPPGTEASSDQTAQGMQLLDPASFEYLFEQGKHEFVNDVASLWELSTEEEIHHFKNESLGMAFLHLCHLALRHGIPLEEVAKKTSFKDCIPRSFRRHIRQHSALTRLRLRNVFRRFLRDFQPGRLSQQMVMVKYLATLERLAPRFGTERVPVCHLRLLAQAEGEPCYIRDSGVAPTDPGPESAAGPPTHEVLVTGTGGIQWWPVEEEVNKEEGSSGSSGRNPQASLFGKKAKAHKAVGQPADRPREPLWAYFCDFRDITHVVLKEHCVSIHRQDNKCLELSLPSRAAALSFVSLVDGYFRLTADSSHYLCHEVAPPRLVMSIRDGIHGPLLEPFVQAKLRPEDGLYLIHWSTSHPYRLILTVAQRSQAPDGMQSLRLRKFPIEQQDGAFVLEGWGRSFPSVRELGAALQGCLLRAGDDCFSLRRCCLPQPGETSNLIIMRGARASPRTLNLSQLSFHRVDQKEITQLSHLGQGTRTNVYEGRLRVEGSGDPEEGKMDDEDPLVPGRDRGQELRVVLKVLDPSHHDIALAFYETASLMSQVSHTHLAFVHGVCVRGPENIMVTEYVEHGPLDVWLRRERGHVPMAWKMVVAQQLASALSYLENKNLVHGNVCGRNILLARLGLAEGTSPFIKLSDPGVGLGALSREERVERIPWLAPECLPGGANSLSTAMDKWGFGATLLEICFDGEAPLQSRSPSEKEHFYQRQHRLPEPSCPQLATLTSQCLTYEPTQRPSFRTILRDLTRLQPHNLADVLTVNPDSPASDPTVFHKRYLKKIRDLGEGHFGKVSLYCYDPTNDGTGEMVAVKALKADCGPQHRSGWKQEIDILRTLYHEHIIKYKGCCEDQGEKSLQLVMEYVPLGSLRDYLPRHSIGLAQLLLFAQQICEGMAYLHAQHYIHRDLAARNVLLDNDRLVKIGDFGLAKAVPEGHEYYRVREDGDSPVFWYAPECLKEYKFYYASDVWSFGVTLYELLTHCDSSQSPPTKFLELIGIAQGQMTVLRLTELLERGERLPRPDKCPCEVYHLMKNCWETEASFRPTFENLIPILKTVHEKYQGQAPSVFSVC
Assay: TYK2 microfluidic kinase assay (Caliper EZ Reader II, FAM labeled peptide substrate)
Type: biochemical
Conditions: IC50 TYK2 ([…]) (1 mM ATP), TYK2 […], 1 mM ATP
Answer with the figure and its unit, nothing else.

Below: 3 molecules and their reported IC50.
C[C@@H](C#N)NC(=O)c1ccc(-c2nc(Nc3cnn(C4CC4)c3)ncc2Cl)cc1 [Example 111]    43.3 nM
Cc1cnc(Nc2cnn(CCO)c2)nc1-c1ccc(C(=O)N[C@H](C#N)C2CC2)cc1 [Example 215]    28 nM
Cc1cnc(Nc2cnn(C3CC(C)(C)OC(C)(C)C3)c2)nc1-c1ccc(C(=O)N[C@@H](C)C#N)cc1 [Example 173]    1.07 nM

-- ask Any idea what its IC50 is? The molecule is CC[C@@H](C#N)NC(=O)c1ccc(-c2nc(Nc3cnn(CCO)c3)ncc2C)cc1 [Example 172]
-- reply 1.74 nM

----------
Target: JAK2 (Homo sapiens)
Construct: purchased Carna Biosciences
Sequence (O60674 whole entry): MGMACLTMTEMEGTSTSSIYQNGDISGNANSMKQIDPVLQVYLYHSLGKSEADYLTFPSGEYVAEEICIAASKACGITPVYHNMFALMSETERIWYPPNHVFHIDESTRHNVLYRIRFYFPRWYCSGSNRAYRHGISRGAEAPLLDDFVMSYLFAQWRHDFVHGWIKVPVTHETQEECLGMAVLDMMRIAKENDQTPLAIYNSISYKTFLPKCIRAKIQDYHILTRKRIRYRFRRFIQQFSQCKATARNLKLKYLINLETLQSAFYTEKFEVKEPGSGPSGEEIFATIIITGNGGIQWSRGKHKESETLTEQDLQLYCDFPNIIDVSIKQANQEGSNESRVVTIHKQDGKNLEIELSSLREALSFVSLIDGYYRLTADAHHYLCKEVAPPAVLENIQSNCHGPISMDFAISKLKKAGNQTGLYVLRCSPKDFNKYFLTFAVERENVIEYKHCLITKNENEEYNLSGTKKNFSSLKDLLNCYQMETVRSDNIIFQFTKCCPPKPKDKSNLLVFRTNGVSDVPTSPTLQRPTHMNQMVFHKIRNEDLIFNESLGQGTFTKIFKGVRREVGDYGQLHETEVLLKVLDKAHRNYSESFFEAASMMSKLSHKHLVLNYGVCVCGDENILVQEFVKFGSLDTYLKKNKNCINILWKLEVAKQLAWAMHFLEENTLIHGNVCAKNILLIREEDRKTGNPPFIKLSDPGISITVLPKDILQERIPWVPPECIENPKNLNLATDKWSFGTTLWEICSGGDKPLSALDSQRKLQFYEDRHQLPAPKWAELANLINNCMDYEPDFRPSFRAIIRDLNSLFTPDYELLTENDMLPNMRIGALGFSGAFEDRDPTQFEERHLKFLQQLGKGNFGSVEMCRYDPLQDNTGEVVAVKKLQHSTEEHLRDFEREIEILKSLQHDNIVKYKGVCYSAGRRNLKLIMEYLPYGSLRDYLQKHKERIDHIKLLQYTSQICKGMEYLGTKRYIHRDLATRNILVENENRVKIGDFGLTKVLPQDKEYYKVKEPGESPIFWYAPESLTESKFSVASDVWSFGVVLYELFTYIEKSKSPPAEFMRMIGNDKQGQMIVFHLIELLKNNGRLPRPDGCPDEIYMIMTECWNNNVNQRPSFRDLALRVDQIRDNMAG
Assay: JAK2 microfluidic kinase assay (Caliper EZ Reader II, FAM labeled peptide substrate)
Format: biochemical
Conditions: IC50 JAK2 ([…]) (1 mM ATP), 1 mM ATP
Label key: 1.0 means IC50 under 10 nM; 0.0 means IC50 of 10 nM or more.

Worked cases, answers included:
CC(C)(C#N)CNC(=O)c1ccc(-c2nc(Nc3cnn(C4CC4)c3)ncc2Cl)cc1    0.0
COC[C@@H](C#N)NC(=O)c1ccc(-c2nc(Nc3cnn(C4CCN(C)CC4)c3)ncc2C)cc1    1.0
Cc1cnc(Nc2cnn(C3CCOCC3)c2)nc1-c1ccc(C(=O)NCC2(C#N)CC2)cc1    0.0
CCC[C@@H](C#N)NC(=O)c1ccc(-c2nc(Nc3cnn(C4CCN(C)CC4)c3)ncc2C)cc1    1.0
Cc1cnc(Nc2ccn(C)n2)nc1-c1ccc(C(=O)NCC#N)cc1    0.0
C[C@@H](C#N)NC(=O)c1ccc(-c2nc(Nc3cnn(C4CCN(C)CC4)c3)ncc2F)cc1    0.0
Cc1cnc(Nc2cnn(C3CC3)c2)nc1-c1ccc(C(=O)NCC#N)cc1    0.0

Please turn your attention to the following entry.
-- ask Is it true that IC50 reported for C[C@@H](C#N)NC(=O)c1ccc(-c2nc(Nc3cnn(C)c3)ncc2Cl)cc1 is less than 10 nM?
-- reply 0.0

----------
Experiment: Rat pharmacokinetic study (intravenous and oral)
Format: in vivo
Details: male, plasma, Sprague-Dawley rats, intravenous, 1 mg/kg, solution
Measured endpoint: half-life

Cc1cnc(Nc2cnn(C)c2)nc1-c1ccc(C(=O)NCC(C)(C)C#N)cc1 [Example 13]    21.6 min

For every listed record, write down its half-life.
1. Cc1cnc(Nc2cnn(CC(F)(F)F)c2)nc1-c1ccc(C(=O)NCC#N)cc1 [Example 28]
2. Cc1cnc(Nc2cnn(C3CCOCC3)c2)nc1-c1ccc(C(=O)NCC#N)cc1 [Example 26]
3. Cc1cnc(Nc2cnn(C)c2)nc1-c1ccc(C(=O)NCC2(C#N)CC2)cc1 [Example 12]
4. Cc1cnc(Nc2cnn(CC#N)c2)nc1-c1ccc(C(=O)NCC#N)cc1 [Example 4]
5. Cc1cnc(Nc2cnn(C3CCN(C(=O)C4(C)CC4)CC3)c2)nc1-c1ccc(C(=O)NCC#N)cc1 [Example 38]
6. C[C@@H](C#N)NC(=O)c1ccc(-c2nc(Nc3cnn(C4CCOCC4)c3)ncc2Cl)cc1 [Example 39]

-- reply
["24 min", "30 min", "26.4 min", "13.2 min", "33.6 min", "27.6 min"]

Give half-life for each listed item.
1. Cc1cnc(Nc2cnn(C3CC3)c2)nc1-c1ccc(C(=O)NCC#N)cc1 [Example 25]
2. Cc1cnc(Nc2cnn(C3CCN(C(=O)C4CC4)CC3)c2)nc1-c1ccc(C(=O)NCC#N)cc1 [Example 24]
3. Cc1cnc(Nc2cnn(C)c2)nc1-c1ccc(C(=O)N[C@@H](C)C#N)cc1 [Example 18]

-- reply
["12 min", "37.8 min", "28.8 min"]

----------
Experiment: Mini-pig dermal pharmacokinetic study
Type: in vivo, Guangxi Bama mini-pigs
Details: male, Guangxi Bama, minipig, topical or ocular, 25 μL/m^2 at 6 ml/mL, topical administration, plasma, read-out: Plasma AUC0-last
Excerpt: The aim of this study was to obtain the topical distribution of test articles in mini-pig after topical administration. Test articles were formulated in 50% PEG400, 10% transcutol and 40% PEG3350 (50% in water), and then applied to male Guangxi Bama mini-pigs (17-20 kg). […] Homogenized samples were extracted with 3 fold volumes of acetonitrile and quantified against a standard curve with LC-MS/MS system.
Measured endpoint: AUC(0-t) (ng·h/mL)
One number for each entry, in ng·h/mL.

-- ask Which AUC(0-t) value belongs to Cc1cnc(Nc2cnn(C3CC(C)(C)OC(C)(C)C3)c2)nc1-c1ccc(C(=O)N[C@@H](C)C#N)cc1 [Example 173] ?
-- reply 17.3

----------
Biological target: JAK1 (Homo sapiens)
Construct: purchased Carna Biosciences
Sequence (P23458 whole entry): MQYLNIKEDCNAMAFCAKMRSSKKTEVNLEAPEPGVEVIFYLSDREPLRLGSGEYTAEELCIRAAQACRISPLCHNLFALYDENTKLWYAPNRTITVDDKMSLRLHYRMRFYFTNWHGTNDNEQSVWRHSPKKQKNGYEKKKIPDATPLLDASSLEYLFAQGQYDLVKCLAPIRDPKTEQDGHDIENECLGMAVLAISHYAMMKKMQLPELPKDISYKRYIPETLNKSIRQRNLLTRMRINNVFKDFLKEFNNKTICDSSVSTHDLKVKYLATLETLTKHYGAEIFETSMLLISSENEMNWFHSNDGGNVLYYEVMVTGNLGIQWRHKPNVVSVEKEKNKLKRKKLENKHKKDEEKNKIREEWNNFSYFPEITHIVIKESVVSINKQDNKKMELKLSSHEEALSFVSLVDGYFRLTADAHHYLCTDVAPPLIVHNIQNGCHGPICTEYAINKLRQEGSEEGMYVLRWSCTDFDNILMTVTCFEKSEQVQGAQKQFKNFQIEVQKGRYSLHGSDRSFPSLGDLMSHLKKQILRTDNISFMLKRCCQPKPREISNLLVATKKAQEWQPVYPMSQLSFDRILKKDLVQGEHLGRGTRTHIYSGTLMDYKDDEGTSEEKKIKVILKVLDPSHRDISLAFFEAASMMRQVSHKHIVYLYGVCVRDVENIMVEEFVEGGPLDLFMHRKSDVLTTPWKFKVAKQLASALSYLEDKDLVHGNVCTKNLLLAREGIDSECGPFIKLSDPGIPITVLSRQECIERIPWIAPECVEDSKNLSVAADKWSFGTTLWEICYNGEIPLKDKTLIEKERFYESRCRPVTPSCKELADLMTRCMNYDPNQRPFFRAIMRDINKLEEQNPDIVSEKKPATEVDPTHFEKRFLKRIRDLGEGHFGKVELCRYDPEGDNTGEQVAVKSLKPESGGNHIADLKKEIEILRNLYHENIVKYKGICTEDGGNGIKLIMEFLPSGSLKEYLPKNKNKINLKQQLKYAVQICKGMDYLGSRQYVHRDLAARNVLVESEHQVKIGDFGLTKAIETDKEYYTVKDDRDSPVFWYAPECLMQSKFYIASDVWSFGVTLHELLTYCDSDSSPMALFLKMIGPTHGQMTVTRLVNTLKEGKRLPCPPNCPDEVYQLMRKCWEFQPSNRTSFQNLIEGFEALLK
Test: JAK1 microfluidic kinase assay (Caliper EZ Reader II, FAM labeled peptide substrate)
Type: biochemical
Settings: IC50 JAK1 (5 nM) (1 m MATP), JAK1 5 nM, 1 mM ATP
So I've got a bunch of molecules here, and I need their pIC50 values.
One number for each entry, as −log10 of the molar value.

Respectfully, I request pIC50 for each entry included below.
1. CC[C@@H](C#N)NC(=O)c1ccc(-c2nc(Nc3cnn(C4CC(C)(C)OC(C)(C)C4)c3)ncc2C)cc1 [Example 179]
2. CC[C@@H](C#N)NC(=O)c1ccc(-c2nc(Nc3cnn(C4CC4)c3)ncc2C)cc1 [Example 193]
3. Cc1cnc(Nc2cnn(C3CCN(C)CC3)c2)nc1-c1ccc(C(=O)N[C@H](C)C#N)cc1 [Example 62]
4. C[C@@H](C#N)NC(=O)c1ccc(-c2nc(Nc3cnn(C4CC4)c3)ncc2C(F)F)cc1F [Example 138]

-- reply
1: 8.22; 2: 8.82; 3: 7.64; 4: 6.36

----------
Molecular target: JAK2V617F (Homo sapiens, UniProt O60674, V617F)
Sequence (O60674 whole entry V617F): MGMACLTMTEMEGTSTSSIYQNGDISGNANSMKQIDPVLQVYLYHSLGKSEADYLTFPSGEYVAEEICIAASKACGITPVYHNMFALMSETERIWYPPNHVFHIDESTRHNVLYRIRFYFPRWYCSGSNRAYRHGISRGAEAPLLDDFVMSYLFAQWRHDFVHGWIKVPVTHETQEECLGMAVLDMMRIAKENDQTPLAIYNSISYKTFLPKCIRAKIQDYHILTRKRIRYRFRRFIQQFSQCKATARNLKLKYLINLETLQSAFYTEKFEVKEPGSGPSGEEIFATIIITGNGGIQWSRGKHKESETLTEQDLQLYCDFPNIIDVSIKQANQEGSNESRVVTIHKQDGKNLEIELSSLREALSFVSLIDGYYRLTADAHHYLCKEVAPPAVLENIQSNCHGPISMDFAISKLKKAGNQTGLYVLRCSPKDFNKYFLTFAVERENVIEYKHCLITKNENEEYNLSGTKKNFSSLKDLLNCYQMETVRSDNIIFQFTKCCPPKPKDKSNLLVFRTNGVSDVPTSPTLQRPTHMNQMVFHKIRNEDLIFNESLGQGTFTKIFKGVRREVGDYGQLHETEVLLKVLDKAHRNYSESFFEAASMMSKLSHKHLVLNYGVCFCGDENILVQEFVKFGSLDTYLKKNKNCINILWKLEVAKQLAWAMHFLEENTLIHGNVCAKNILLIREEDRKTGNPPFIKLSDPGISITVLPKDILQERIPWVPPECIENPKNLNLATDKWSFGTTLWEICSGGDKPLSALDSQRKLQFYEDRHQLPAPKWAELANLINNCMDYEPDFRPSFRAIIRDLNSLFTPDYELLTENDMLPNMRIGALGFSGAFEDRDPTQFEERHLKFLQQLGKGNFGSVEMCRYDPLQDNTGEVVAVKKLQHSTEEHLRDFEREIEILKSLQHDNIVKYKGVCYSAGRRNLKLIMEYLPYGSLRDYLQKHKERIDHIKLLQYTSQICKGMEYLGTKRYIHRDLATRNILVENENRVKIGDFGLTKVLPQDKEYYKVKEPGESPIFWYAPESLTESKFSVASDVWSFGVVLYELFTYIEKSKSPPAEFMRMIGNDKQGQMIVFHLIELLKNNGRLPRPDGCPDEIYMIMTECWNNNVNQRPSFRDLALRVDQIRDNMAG
Assay: JAK2V617F microfluidic kinase assay (Caliper EZ Reader II, FAM labeled peptide substrate)
Conditions: JAK2V617F 2.5 nM, 1 mM ATP
Method: Compounds were tested against JAK1, JAK2, JAK2V617F and TYK2. Assay Formats: JAK activity was determined in the reaction buffer 50 mM HEPES, 0.01% Brij35, 10 mM MgCl2, 2 mM DTT by a microfluidic assay. The phosphorylation of a FAM labeled peptide substrate was monitored in the Caliper EZ Reader II (Perkin Elmer). The assay condition for each batch of enzyme (Carna Biosciences) was optimized to obtain 10% conversion rate of peptide substrate. […]
Please respond with reported log10 IC50 for every item in the list.
log10 IC50, nM

Cc1cnc(Nc2cnn([C@H]3CC[C@@H](C#N)CC3)c2)nc1-c1ccc(C(=O)N[C@@H](C)C#N)cc1    1.48
CC(C)(C)C(=O)N1CCC(n2cc(Nc3ncc(Cl)c(-c4ccc(C(=O)NCC#N)cc4)n3)cn2)CC1    0.11
Cc1cnc(Nc2cnn(C3CCCOC3)c2)nc1-c1ccc(C(=O)NCC#N)cc1 (stereo not shown)    1.43
Cc1cnc(Nc2cnn(C)c2)nc1-c1ccc(C(=O)NC(C)C)cc1    3.66
C[C@@H](C#N)NC(=O)c1ccc(-c2nc(Nc3cnn(C4CCOCC4)c3)ncc2Cl)cc1    0.73

Okay, here is my list. What is log10 IC50 for each of these?
1. Cc1cnc(Nc2cnn(C3CC4CCC(C3)N4C(=O)C3(C)CC3)c2)nc1-c1ccc(C(=O)NCC#N)cc1 (stereo not shown)
2. Cc1cnc(Nc2cnn([C@H]3CC[C@H](C#N)CC3)c2)nc1-c1ccc(C(=O)N[C@@H](C)C#N)cc1
3. Cc1cnc(Nc2cnn(C3CCC(O)CC3)c2)nc1-c1ccc(C(=O)NCC#N)cc1 (stereo not shown)

-- reply
0.66
0.65
0.46
